I'd appreciate it if you could supply GI50 values for the items below.
System: OVCAR-8
assay-info: Growth inhibition of human OVCAR-8 cells incubated for 48 hrs by sulforhodamine B assay
Assay type: functional
Give the number; nM is assumed, so skip it.

Find the measured GI50 of `COc1cc2nc(-c3ccc(Cl)cc3)cc(OCCCN3CCCC3)c2cc1OC` with OVCAR-8 as test system.
1190

Give GI50 only, for `COc1cc2nc(-c3ccc(C(F)(F)F)cc3)cc(OCCCN3CCC(O)CC3)c2cc1OC` , using OVCAR-8 data.
1660

# return GI50 for `COc1cc2nc(-c3ccc(C(F)(F)F)cc3)cc(OCCCN3CCOCC3)c2cc1OC` , test system: OVCAR-8
1950

Provide the reported GI50 (system: OVCAR-8) for `COc1cc2nc(-c3ccc(Cl)cc3)cc(OCCCN3CCOCC3)c2cc1OC`
2150

Provide GI50, recorded with OVCAR-8, of `COc1cc2nc(-c3ccc(C(F)(F)F)cc3)cc(OCCCN3CCCC3)c2cc1OC`
806

Report the value of GI50 obtained on OVCAR-8 for `COc1cc2nc(-c3ccc(C(F)(F)F)cc3)cc(OCCCN3CCCCC3)c2cc1OC` .
734

Specify the recorded GI50 for `COc1cc2nc(-c3ccc(Cl)cc3)cc(OCCCN3CCCCC3)c2cc1OC` , system: OVCAR-8.
1770

Tell me its GI50 on OVCAR-8: `COc1cc2nc(-c3ccc(Cl)cc3)cc(OCCCN3CCC(O)CC3)c2cc1OC`
2000

====

Tested on: RXF 393
assay-info: Growth inhibition of human RXF 393 cells at 10 uM incubated for 48 hrs by sulforhodamine B assay relative to control
Assay type: functional
experimental-setup: read-out: GI
experimental-readout: inhibition of growth at 10 µM (%)
Please give a number only; it is taken to be in %.

Indicate the recorded inhibition of growth at 10 µM value for this molecule: `COc1cc2nc(-c3ccc(C(F)(F)F)cc3)cc(OCCN3CCOCC3)c2cc1OC`
13

Look up and report measured inhibition of growth at 10 µM for this entry: `COc1cc2nc(-c3ccc(Cl)cc3)cc(OCCN3CCOCC3)c2cc1OC`
3

Return reported inhibition of growth at 10 µM. Input molecule: `COc1cc2nc(-c3ccc(Cl)cc3)cc(OCCCN3CCCCC3)c2cc1OC`
62

For the molecule `COc1cc2nc(-c3ccsc3)cc(OCCCN3CCC(O)CC3)c2cc1OC` , report inhibition of growth at 10 µM.
32

Assign inhibition of growth at 10 µM to the following record: `COc1cc2nc(-c3ccc(Cl)cc3)cc(OCCN3CCC(O)CC3)c2cc1OC`
3

Give inhibition of growth at 10 µM for `COc1cc2nc(-c3ccc(Cl)cc3)cc(OCCN3CCCCC3)c2cc1OC`
3

Kindly indicate its recorded inhibition of growth at 10 µM. Item: `COc1cc2nc(-c3ccc(Cl)cc3)cc(OCCN3CCCC3)c2cc1OC`
3

Name the recorded inhibition of growth at 10 µM of the item `COc1cc2nc(-c3ccc(Cl)cc3)cc(OCCCN3CCC(O)CC3)c2cc1OC` in your answer.
62

Supply inhibition of growth at 10 µM value. Item: `COc1cc2nc(-c3ccc(Cl)cc3)cc(OCCCN3CCOCC3)c2cc1OC`
62

// fetch inhibition of growth at 10 µM given entry `COc1cc2nc(-c3ccc(C(F)(F)F)cc3)cc(OCCN3CCCCC3)c2cc1OC`
13
